Entry source: the supplement of paper PMC7125110

Provide the reported self-cleavage kobs at 2500 uM GlcN6P of each item.
B1: glmS ribozyme (parent)
chain: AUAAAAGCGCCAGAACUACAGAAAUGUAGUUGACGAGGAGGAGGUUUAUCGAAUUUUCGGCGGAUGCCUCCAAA

# Variants of: B1
# Protocol Description: self-cleavage kobs at 2500 uM GlcN6P; higher = faster cleavage; RNA array
# Settings: with glucosamine-6-phosphate
This sample holds only a part of the variants without activity.

Which self-cleavage kobs at 2500 uM GlcN6P value is on record for "AUAAAAGCACCAGAACUACAGAAAUGUAGUUGGCGAGGAGGACGUUUAUCGAAUUUUCGGCGGAUGCCUCCAAA" ?
< 1e-05 s⁻¹

Reported self-cleavage kobs at 2500 uM GlcN6P, variant "AUAAAAGCACCAGAACUACAGAAAUGUAGUCGACGAGGAGGAGGUUUAUCGUAUUUUCGGCGGAUGCCUCCAAA" : ____
< 1e-05 s⁻¹

Reported self-cleavage kobs at 2500 uM GlcN6P for "AUAAAAGCGCCAGAACUACAGAAAUGUAGAUGACGAGGGGGAGGUUUGUCGAAUUUUCGGUGGAUGCCUCCAAA" : what is it?
< 1e-05 s⁻¹

Which self-cleavage kobs at 2500 uM GlcN6P reading was recorded for the variant "AUAAAAGCGCCGGAACUACAGAAAUGUAGUUGACGAGGAGGAGGUUUAUCGAAGUUUCGGCGGAUGCCUCCAAA" ?
0.000475 s⁻¹

What value of measured self-cleavage kobs at 2500 uM GlcN6P is listed for "AUAAAAGCGCCAGAAAUACAGAAAUGUAGUUGACGAGGAGGAGGUUUAUCGAAUUUUCGGCUGAUGCCUCGAAA" ?
< 1e-05 s⁻¹

Value lookup for self-cleavage kobs at 2500 uM GlcN6P; key = "AUAAAAGCGGCAGAACUACAGAAAUGUAGUUGACGAGGAGUAGGUUUAUCGAAUUUUCCCCGGAUGCCUCCAAA"
< 1e-05 s⁻¹

# self-cleavage kobs at 2500 uM GlcN6P lookup, item "AUAAAAGCGCCCGAAUUACAGAAAUGUAGUUGACGAGGAGGAGGUUUAUCGAAUUUUCGGCGGAUGCCUCCAAA"
0.0065 s⁻¹

State the recorded self-cleavage kobs at 2500 uM GlcN6P for this entry: "AUAAAAGCGCCAGAACUACAGAAAUGUAGUUGACGAGGAGGAGGUGUAUCGAAUUUUAGGCGGUUGCCUCCAAA"
< 1e-05 s⁻¹

Fill in: self-cleavage kobs at 2500 uM GlcN6P of "AUAAAAUCGCCAGAACUACAGAAAUGUAGUUGCCGAGGAGGAGGUUUAUCGAAUUUUCUUCGGAUGCCUCCAAA" is ___
< 1e-05 s⁻¹

Which value of self-cleavage kobs at 2500 uM GlcN6P has been reported for "AUAAAAGCGCCAGAACUACAGAAAUGUAGUUGAAGAGGAGGAGUUUUAUCGAAUUUUGGGCGGAUGCCUCCAAA" in the records?
< 1e-05 s⁻¹

Name the reported self-cleavage kobs at 2500 uM GlcN6P value associated with the variant "AUAAAAGCGCCAGAACUACAGAAAUGUAGUUGACGAGGAGAAGGAUUAUCGAAUUUUCGGCGGAUGCCUCCAAA"
0.000354 s⁻¹

For the variant shown here, "AUAAAAGCGCCAGAACUACAGAAAUGUAGUUGUCGAGGAGGAGGUUUAUCGAGUUUUCGGCGGAUGCCUCCAAA" , give the reported self-cleavage kobs at 2500 uM GlcN6P.
3.39e-05 s⁻¹

Report self-cleavage kobs at 2500 uM GlcN6P for "AUAAAAGCGCCAGAACUACAGAAAUGUAGUUGACCAGGAUGAGGUUUAUCGAAUUUUCGGCGGAUGCCUCCAAA" please.
< 1e-05 s⁻¹

Field request: self-cleavage kobs at 2500 uM GlcN6P | item: "AUAAAAGCGCCAAAACUACAGAAAUGUAGUUGACGAGGAGGAGGUUUAUCGAAUUCUCGGCGGAUGCCUCCAAA"
8.37e-05 s⁻¹
